system: HCC-2998 colon; assay: NCI tumour cell line growth inhibition, 48 h
measured_quantity: TGI

1) COc1cc2c(cc1OC)CC1c3cc(OC)c(OC)cc3CCN1CC2 (centres undefined) ... > 100 µM
2) Cc1ccc(NC(=O)CSc2nnc3n(Cc4ccccc4)c(=O)c4c(C)c(C(N)=O)sc4n23)cc1 ... > 100 µM
3) CC(C)=CCC/C(C)=C\CCC1(C)OC(=O)C2CC21 (centres undefined) ... > 100 µM
4) CSC(=S)OC1CC(n2cnc3c(NC(=O)c4ccccc4)ncnc32)OC1CO[Si](C)(C)C(C)(C)C (centres undefined) ... > 31.6 µM
5) Cc1ccc(C(=O)/C=C/c2cccc([N+](=O)[O-])c2)cc1 ... > 92 µM
6) O=C1NNC2NC(=O)C3(NN2C1=O)c1ccccc1-c1ccccc13 (centres undefined) ... > 100 µM
7) CCNC12CCC(C1)C(C)(C)C2=O (centres undefined) ... > 100 µM
8) CN(C)c1ccc(/C=C2\N=C(N/N=C/c3ccccc3O)NC2=O)cc1 ... > 100 µM
9) CC(C)(C)OC(=O)NCCNCCNc1ccccc1 ... > 100 µM
